Molecular target: Tyrosyl-tRNA synthetase, putative (Trypanosoma cruzi (strain CL Brener))
Experiment: Trypanosoma cruzi tyrosyl tRNA synthetase (TcYRS) _High Tyrosine SOP
Format: functional
Design: scale not given: in the data most compounds retested in dose-response had high values
Settings: 30 µM
Assay readout: Percent Effect

Compound | Assay readout | Test value
CCO[C@@H]1CO[C@@]2(CCCN(C(=O)COc3ccccc3OC)C2)C1 | Percent Effect | 6.35%
O=C(NCCc1ccccn1)NC1CCN(c2ncccn2)CC1 | Percent Effect | 9.38%
CNC(=O)N1C[C@H]2CC[C@@]3(N=C(c4ccccc4)NC3=O)[C@H]2C1 | Percent Effect | 2.15%
CCc1nc2n(n1)CC(NCc1noc(-c3ccccc3)n1)CC2 (centres undefined) | Percent Effect | 3.45%
O[C@H]1[C@H](n2cc(-c3ccccc3)nn2)c2ccccc2C12CCNCC2 | Percent Effect | 5.26%
O=C(NS(=O)(=O)c1cc(Cl)sc1Cl)c1cccc2c1OCCO2 | Percent Effect | -22.6%
O=C(c1ccc(N2CCCC2)nn1)N1CCCC(n2cccn2)C1 (centres undefined) | Percent Effect | 4.43%
CC(C)(C)NC(=O)NC(=O)CNC(C)(C)c1ccc2c(c1)OCCO2 | Percent Effect | 4.43%
CCc1nc(C(=O)N2CCCC2)nn1-c1ccccc1Cl | Percent Effect | 7.39%
NC(=O)C1CN(C(=O)Nc2cc(Cl)cc(Cl)c2)CCO1 (centres undefined) | Percent Effect | 4.17%
Nc1cc2c(nn1)CCN(C(=O)c1cccc3c1OCCO3)C2 | Percent Effect | 5.83%
Cc1cc(-c2cnc(NC3CC3)nc2-c2ccc(C)o2)on1 | Percent Effect | 2.13%
CCC(C)CNc1ccc2oc(COC)nc2c1 (centres undefined) | Percent Effect | -6.93%
Cc1noc(C)c1CNc1cc(N2CCCC2CO)ncn1 (centres undefined) | Percent Effect | 0%
CC(C)(C)c1cc(CN2CC[C@@H](NC(=O)c3cccnc3)[C@H](O)C2)n[nH]1 | Percent Effect | 3.16%
CCc1nnc(CN(C)c2nc(C3CCCC3)nc3c2cnn3C)o1 | Percent Effect | 1.05%
CC(C)c1csc(C2CCCN(C(=O)c3ncccn3)C2)n1 (centres undefined) | Percent Effect | -3.23%
Cc1ccccc1Cc1cnc(NC(=O)C2CNC(=O)N2)s1 (centres undefined) | Percent Effect | 2.08%
C=C1c2ccccc2C(=O)N1CCC(=O)N1CCNC(=O)C1 | Percent Effect | 6.37%
Cc1ccc(CC(=O)N2CCOC(c3nc(C(C)(C)C)n[nH]3)C2)cn1 (centres undefined) | Percent Effect | 3.16%
CC(=O)N1CCCC1c1nccnc1Nc1cccc(C)n1 (centres undefined) | Percent Effect | -1.06%
C=Cn1ncc(CN2C[C@@H]3CCCN3C[C@@H]2Cc2ccccc2)c1C | Percent Effect | 6.45%
O=C(c1cccc2c1OCO2)N1CCCC(n2cccn2)C1 (centres undefined) | Percent Effect | 0.493%
Fc1cc(CNCc2ccc3c(c2)CCO3)ccc1N1CCOCC1 | Percent Effect | -2.65%
